Where do the numbers come from? From the supplement of paper PMC9112550.

Measured shrunken log2 fold change, listed per entry for reference.
# Test system: Escherichia coli TOP10
# assayDetails: shrunken log2 fold change of peptide-encoding DNA abundance (4.5 h post-induction vs induction); higher = less antimicrobial activity (less host growth inhibition)
# conditionInfo: time post-induction: 4.5 h; library: site-saturation at positions 5, 18, 19, 20
Please give the numeric answer without any surrounding text.

Consider the reported shrunken log2 fold change for these sequences:
>  <sequenceContent>
RRIRFRPPRLPRPRPRPIWMPRP

>  <shrunken log2 fold change>
-0.226

$$$$
>  <sequenceContent>
RRIRYRPPRLPRPRPRPWFWPRP

>  <shrunken log2 fold change>
-0.0261

$$$$
>  <sequenceContent>
RRIRYRPPRLPRPRPRPFMQPRP

>  <shrunken log2 fold change>
-0.403

$$$$
>  <sequenceContent>
RRIRRRPPRLPRPRPRPNSQPRP

>  <shrunken log2 fold change>
-0.154

$$$$
>  <sequenceContent>
RRIRMRPPRLPRPRPRPKQTPRP

>  <shrunken log2 fold change>
3.33

$$$$

Turning now to a further record.
Lab request: please report shrunken log2 fold change under test system Escherichia coli TOP10 for RRIRCRPPRLPRPRPRPGGHPRP 0.286

----------
# System: Escherichia coli TOP10
# assayDetails: shrunken log2 fold change of peptide-encoding DNA abundance (4.5 h post-induction vs induction); higher = less antimicrobial activity (less host growth inhibition)
# conditionInfo: time post-induction: 4.5 h; library: site-saturation at positions 5, 18, 19, 20
Rule: shrunken log2 fold change of 0.05 or more gives 1 (yes); anything lower gives 0 (no).

Test whether the sequence RRIRERPPRLPRPRPRPSSSPRP records shrunken log2 fold change of 0.05 or higher. 1 (yes)

Test whether the sequence RRIRSRPPRLPRPRPRPHMMPRP records shrunken log2 fold change of 0.05 or higher. 0 (no)

Test whether the sequence RRIRQRPPRLPRPRPRPSGAPRP records shrunken log2 fold change of 0.05 or higher. 1 (yes)

Test whether the sequence RRIRYRPPRLPRPRPRPDLVPRP records shrunken log2 fold change of 0.05 or higher. 0 (no)

Test whether the sequence RRIRVRPPRLPRPRPRPCESPRP records shrunken log2 fold change of 0.05 or higher. 0 (no)

Test whether the sequence RRIRHRPPRLPRPRPRPAAWPRP records shrunken log2 fold change of 0.05 or higher. 1 (yes)

----------
# System: Escherichia coli TOP10
# assayDetails: shrunken log2 fold change of peptide-encoding DNA abundance (4.5 h post-induction vs induction); higher = less antimicrobial activity (less host growth inhibition)
# conditionInfo: time post-induction: 4.5 h; library: site-saturation at positions 5, 18, 19, 20
Measured shrunken log2 fold change, listed per entry for reference.
Please give the numeric answer without any surrounding text.

Consider the reported shrunken log2 fold change for these sequences:
>  <sequenceContent>
RRIRSRPPRLPRPRPRPAIWPRP

>  <assaySystem>
Escherichia coli TOP10

>  <shrunken log2 fold change>
0.463

$$$$
>  <sequenceContent>
RRIRLRPPRLPRPRPRPITLPRP

>  <assaySystem>
Escherichia coli TOP10

>  <shrunken log2 fold change>
-0.553

$$$$
>  <sequenceContent>
RRIRQRPPRLPRPRPRPCKMPRP

>  <assaySystem>
Escherichia coli TOP10;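 further: peptides expressed intracellularly from a pBAD plasmid library in pooled LB shake-flask culture, induced with 0.3% L-arabinose, DNA abundance read by NGS, three biological replicates, DESeq2 with apeglm shrinkage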

>  <shrunken log2 fold change>
0.0276

$$$$

// lookup shrunken log2 fold change for RRIRWRPPRLPRPRPRPQEAPRP -0.00482

// lookup shrunken log2 fold change for RRIRKRPPRLPRPRPRPKKHPRP 0.276

// lookup shrunken log2 fold change for RRIRQRPPRLPRPRPRPTNCPRP -0.33

// lookup shrunken log2 fold change for RRIRSRPPRLPRPRPRPQFAPRP 0.105

// lookup shrunken log2 fold change for RRIRGRPPRLPRPRPRPQPNPRP 0.679

// lookup shrunken log2 fold change for RRIRCRPPRLPRPRPRPMFNPRP -0.848

// lookup shrunken log2 fold change for RRIRFRPPRLPRPRPRPWWAPRP -0.377

// lookup shrunken log2 fold change for RRIRHRPPRLPRPRPRPTEIPRP 0.0223

// lookup shrunken log2 fold change for RRIRTRPPRLPRPRPRPCQEPRP -0.0218

// lookup shrunken log2 fold change for RRIRPRPPRLPRPRPRPANNPRP -0.353

// lookup shrunken log2 fold change for RRIRHRPPRLPRPRPRPNCQPRP 0.358

// lookup shrunken log2 fold change for RRIRYRPPRLPRPRPRPMFVPRP -0.228
